- assayName: Determination of the blood-to-plasma ratio (spiked whole blood and plasma, GC–MS of plasma)
- Assay type: in vitro ADME
- particulars: both sexes, pooled whole blood and plasma, pooled human blood, haematocrit 41%, 1 h at 37 °C, read-out: Kb/p experimental (blood-to-plasma ratio)
The reader will find reported blood plasma ratio at 1 h, 5 µM values listed item by item below.

compound	blood plasma ratio at 1 h, 5 µM
O=C1CN=C(c2ccccc2)c2cc([N+](=O)[O-])ccc2N1 [Nitrazepam, nitrazepam]	0.63
CCc1cc2c(s1)-n1c(C)nnc1CN=C2c1ccccc1Cl [Etizolam, etizolam]	0.7
C[C@@H]1N=C(c2ccccc2Cl)c2cc([N+](=O)[O-])ccc2NC1=O [Meclonazepam, meclonazepam]	0.83
CN(C)CCCN1c2ccccc2Sc2ccc(Cl)cc21 [Chlorpromazine, chlorpromazine]	1.43
C=C[C@H]1C[N@@]2CC[C@H]1C[C@H]2[C@H](O)c1ccnc2ccc(OC)cc12 [Quinine, quinine]	1.66
O=C1CN=C(c2ccccc2Cl)c2cc(Br)ccc2N1 [Phenazepam, phenazepam]	0.57

Cited source: paper PMC9715504
